Reported NUCLEATED RED BLOOD CELLS values for a set of compounds
species on record: Rattus norvegicus; assay: DrugMatrix - Regimen: Daily Repeat; assay type: toxicity, organism-based, Sprague-Dawley; design: regimen Daily Repeat, gender Male, age 6-8 weeks; conditions: in vivo, po, 0 mg/kg, 72 h, tissue Blood, route oral GAVAGE, dose level Control, time 3 day, vehicle 100 % SALINE
reported.property: NUCLEATED RED BLOOD CELLS

compound	reported.property	reported.value
Cc1cc(CC(=O)O)n(C)c1C(=O)c1ccc(Cl)cc1 [ZOMEPIRAC]	NUCLEATED RED BLOOD CELLS	0 /100WBC
CC(=O)OCC(CCn1cnc2cnc(N)nc21)COC(C)=O	NUCLEATED RED BLOOD CELLS	0.17 /100WBC
CCCc1nn(C)c2c(=O)[nH]c(-c3cc(S(=O)(=O)N4CCN(C)CC4)ccc3OCC)nc12	NUCLEATED RED BLOOD CELLS	0.17 /100WBC
Oc1ccccc1O	NUCLEATED RED BLOOD CELLS	0 /100WBC
